- protocol_text: yeast display, Sf9 membrane polyspecificity reagent, FACS + sequencing; frameworks hold sequencing errors
quantity_measured: polyreactivity (PSR sort gate)

QVQLVESGGGLVQAGGSLRLSCAASGSTFPLYTMGWYRQAPGKERELVAAINYGGTSTYYADSVKGRFTISRDNAKNTVYLQMNSLKPEDTAVYYCKQFVPGRYYWGQGTQVTVSS high polyreactivity
QVHLVESGGGLVQAGGSLRLSCAASGRIYRVNGMGWYRQAPGTERELVAAIRRSGGSTYYADSVKGRFTISRDIAKNTVYLQMNSLKPEDTAVYYCAARVRQSSYTRYDSWGQGTQVTVSS high polyreactivity

====

- protocol_text: yeast display, Sf9 membrane polyspecificity reagent, FACS + sequencing; frameworks hold sequencing errors
quantity_measured: polyreactivity (PSR sort gate)

Illustrative cases are given below, each with its answer.
QVQLVESGGGLVQAGGSLRLSCAASGLIFGGYAMGWYRQAPGKERELVAAISSSGGRTYYADSVKGRFTISRDNAKNTVYLQMNSLKPEDTAVYYCATRVHYRNDYWGQGTQVTVSS high polyreactivity
QVQLVESGGGLVQAGGSLRLSCAASGRIFRRYAMGWYRQAPGKERELVAAITRSGGSTYYADSVKGRFTISRDNAKNTVYLQMNSLKPEDTAVYYCAARQVGRYYYLSRYYYWGQGTQVTVSS high polyreactivity
QVQLVESGGGLVQAGGSLRLSCAASRYTFTLYAMGWYRKAPGKEWELLAAISRSGGSTYYADSVKGRFTISRDNAKITVYLQMNSLKPEDTAVYYCAADKYFAWGYPSGLWYDYWGQGTQVTVSS high polyreactivity
QVQLVESGGGLVQAGGSLRLSCAASGSTLPGNVMAWYRQAPGKERELVAAISKRGASTYYADSVKGRFTISRDNAKNTVYLQMNSLKPEDTAVYYCATRTRGSVFRFDYWGQGTQVTVSS high polyreactivity
QVQLVESGGGLVQAGGSLRLSCAASGFIFVTYAMGWYRQAPGKERELVAAITNSGGTTYYADSVKGRFTISRDNAKNTVYLQMNSLKPEDTAVYYCNKPYGAETAHREFDYWGQGTQVTVSS low polyreactivity

Suppose we examine the sequence `QVQLVESGGGLVQAGGSLRLSCAASGSTFTVNGMGWYRQAPGKERELVAAITWGGGSTYYADSVKGRFTISRDNAKNTVYLQMNSLKPEDTAVYYCAADDGYLFDYWGQGTQVTVSS` ; what polyreactivity (PSR sort gate) value has been reported? low polyreactivity

Given the sequence `QVQLQESGGLVQAGGLRLSCAASGYVSYQEAMGWYRQAPGKEREIVATISFGANTNYADSVKGRFTISRDNAKNTVYLQMNSLKPEDTAVYYCAAESLFDVYYGYWGQGTQVTVSS` , what is its reported polyreactivity (PSR sort gate)? low polyreactivity

Need polyreactivity (PSR sort gate) of `QVQLVESGGGLVQAGGSLRLSCAASGFTLYRNAMGWYRQAPGKERELVAAITSSGGRTYYADSVKGRFTISRDNAKYTVYLQMNSLKPEVTAVYSCAADFGLGYYYWGQGTQVTVSS` , thanks. high polyreactivity

Return reported polyreactivity (PSR sort gate); argument: `QVQLVESGGGLVQAGGSLRLSCAASGSTFYGYAMGRYRQSPGKERELVAAITRSGGSTYYADSVKGRFTISRDNAKNTVYLQMNSLKPEDTEVYYCNKYGYKGGVGYDYWGQGTQVTVSS` high polyreactivity

# input sequence: `QVQLVESGGGLVQAGGSLRLSCAASGRTSVIYAMGWYGPAPGKERELVASIRRGCSTSYADSVKGRFTISRDNAKNTVYLQMNSLKPEDTAVFYCAALLYGYYHVWRNYYWGQGTQVTVSS` ; wanted: its polyreactivity (PSR sort gate) high polyreactivity

What does the data say about its polyreactivity (PSR sort gate)? Entry: `QVQLVESGGGLVPARGSLRLSCAASGFIFSDNAMGWYRQAPGKERELVAAITDDGDTTYYADSVKGSFTISRDNAKNTVYLQMISLKPEDTAVYYCATEIEDVEDSGPYYYVGYGYWGQGTQVTVSS` high polyreactivity

I am curious: what polyreactivity (PSR sort gate) value has been reported for `QVQLVESGGGLVQAGGSLRLSCAASGSTFPVNAMGWYIQAPGKERELVARIRGSGGSTYYADSVKGRFTISRDNAKNTVYLQMNSLKPEDTAVYYCNADPVRSGLDYWGQGTQVTVSS` ? high polyreactivity

I have this sequence here, `QVQLVESGGGLVEAGGSLRLSCAASGSIFDDYAMGWYRQAPGEERELVAAITWNGGSTYADSVKGRFTISRDNAKNTVYFQMNSLKPEDTAVYYSAADYFVYWYYGYGYWGQGTQVTVSS` , and I need its recorded polyreactivity (PSR sort gate). low polyreactivity

Could you tell me which polyreactivity (PSR sort gate) is on file for `QDQLVESGGGLVQAGGSLRLICAASGRTFWAYAMGWYRQAPGKERELVAAISVSGGRTYYADSVKGRFTISRDNAKNTVYLQMNSLKPEDTAVYYCNKRYLKSYEYYWGQGTHVTVSS` ? high polyreactivity

Which polyreactivity (PSR sort gate) is listed for `QVQLVESGGGLVQAGGSLRLSCAASGSIFPNNDMGWYRQAPGKERELVAAITTRGTSTYYADSVKGRFTISRDNAKNTVYLQMNSLKPEDTAVYYCAVGRRGDSAGGVAYYYWGQGTQVTVSS` ? low polyreactivity

====

- protocol_text: yeast display, Sf9 membrane polyspecificity reagent, FACS + sequencing; frameworks hold sequencing errors
quantity_measured: polyreactivity (PSR sort gate)

QVQHVESGGGLVQAGGSLRLSCAASGLTFSYNAMGWYRQAPAKERELVAAIRSGGSTNYADSVKGRFTISRDNAKNTVYLEMYSLKPVDSAVYFCADKSVTGVFRYYYWGQGSQVTVSS low polyreactivity
QVQLVESGGGLVQAGGSLRLSCAASGRIFWLNAMGWYRQAPGKEREFVASITYGSDSTYYADSVKGRFTISRDNAKNTVYLHMNSLKPEDTAVYYCNREGWHYGPYGYWGQGTQVTVSS low polyreactivity

====

- protocol_text: yeast display, Sf9 membrane polyspecificity reagent, FACS + sequencing; frameworks hold sequencing errors
quantity_measured: polyreactivity (PSR sort gate)

Solved entries:
QVQLVESGGGLVQEGGSLRLSCAASGSHFTRYVMGWYRPAPGKERELVAAITTGGSTYYADSVKGRFTISLDNAKNTVYLQMNSLKPEDTAVYYCAADRRTVSYKYNYWGQGTQVTVSS high polyreactivity
QVQLVESGGGIVQAGGSLRLSSAASGINFRYYAMGSSRPAPGKDRELVAVKSRDGTTYYADSVKGRFTISRDNAKNTVYLPMNSLKAADTAVYYCAKKAWVIYNRKFSSGYDYWGQGTQVNVSS low polyreactivity
QVQLVESGGGLVQAGGSLRLSCAASGFTFWQYTMGWYRQAPGKERDFVASITSGVSTYYADSVKGSFTISRENAKNTVYLQMNSVKPEDTAVYYCAAYYYRRYLRGFFENWGQGTQVTVSS high polyreactivity
QVQLVESGGGLVQAGGSLRLSCAASGRTFLRYAMGWYRQAPGKERELVAAISSRGGTTHYADSVKGRFTISRDNAKNTVYLLMNSLKPEDTAVYYCAAKSFLPYLKFGYWGQGTQVTVSS high polyreactivity
HVHLVESGGGLVQAGGSLPLSCAASGFIISHYTMGWYRQAPGKERELVAGISWSGGNTYYADFVKGRFTISRDHAKNTVYLQMNSLKPEDTAVYYCNADWIGVPLAYDYWGQGTQVTVSS low polyreactivity
QVQLVESGGGLVQAGGSLRLSCAASGRIFSVNAMGWYRQAPGKERELVAAITSGGRTNYADSVKGRFTISRDNAKNTFYLQMNSLKPEDTAVYYCAAPYLKGGEDDYWGQGTQVTVSS high polyreactivity

What measured polyreactivity (PSR sort gate) goes with `QVQLVESGGGLVQAGGSLRLSCAASGRTFGVNAMGWYRQAPGKERELVAAISYSGASTFYADSVKGRFTISRDNAKNTVYLQMNSLKPEDTAVYYCDARGYYGGFYYWGQGTQVTVSS` ? high polyreactivity

Which polyreactivity (PSR sort gate) value belongs to `QDQLVESGGGLVQAGGSLRLTCAASGSTFGVYTMGWYRQAPGKERELVAAITKSGGSTYYADSVKGRFTISRDNAKNTVYLQMNSLKPEETAVYYCATDADRPPRTPDISYVSNFDYWGQGTQVTVSS` ? low polyreactivity

Field request: polyreactivity (PSR sort gate) | item: `QVQLVESGGGLVQAGGSLRLSCAASGIIFSFYAMGWYRQAHGKERELVADITLSGGRTYYADSVKGRFTISRDNAKNTVYLQMNSLKPEDTAVYYCNADTYERGDYWGQGTQVTVSS` high polyreactivity

Could you tell me which polyreactivity (PSR sort gate) is on file for `QVQLVDSGGGLVQAGGSLRLSCAASGRTFGVNTMGWYRQAPGKERELVAAISWSGGRTYYADSVKGRFTISRDNAKNTVYLQMNSLKPEDTAVYYCAASWYSRASLYDYWGQGTQVTVSS` ? high polyreactivity

Query: polyreactivity (PSR sort gate); subject: `QVQLVESGGGLVQAGGSLRLSCAASGSIFRKYAMGWYRQATGKERELVAAIRSSGGSTYYADSVKGRFTISRDNAKNTVYLQMNSLKPEDTSVYYWAATTGEHEDFRGQGTQVTVSS` high polyreactivity

Fill in the blank: the reported polyreactivity (PSR sort gate) of `QVQLVESGGGLDQAGGSLRLSCAASGSTFRSYAMGWYRQAPGKERELVAVISSGDSTYYADSVKGRFTISRDNAKNTVYLQMNSLKQEDTAVYYCAADSYVLGRWYGYWGQGTQVTVSS` is ____. low polyreactivity
